system: P388; experiment: Cytotoxicity against mouse P388 cells after 72 hrs by MTT assay; assay type: functional; details: P388, 72 h, read-out: ID50 (the source's name)
Threshold 4 µg/mL: IC50 strictly smaller gives y, otherwise n.

> print(dat)
                                 smilesentry  classname
 1                 COc1c(SCC#CCO)cnc2ccccc12          n
 2             C#CCSc1cnc2ccccc2c1[Se]CC#CCO          y
 3            C#CCSc1cnc2ccccc2c1[Se]CC#CCBr          y
 4              C[Se]c1c(SCC#CCO)cnc2ccccc12          n
 5              C#CCSc1c(SCC#CCO)cnc2ccccc12          n
 6                   CSc1cnc2ccccc2c1SCC#CCO          y
 7           C#CC[Se]c1c(SCC#CCO)cnc2ccccc12          y
 8             OCC#CCSc1cnc2ccccc2c1SCC#CCBr          n
 9              OCC#CCSc1cnc2ccccc2c1SCC#CCO          n
10                   OCC#CCSc1cnc2ccccc2c1Cl          y
11  C#CCSc1cnc2ccccc2c1SCC#CC[Se]c1c(SCC#CC)cnc2ccccc12          n

----------
test: Cytotoxicity against human SW707 cells after 72 hrs by SRB assay; format: functional; conditions: SW707, 72 h, read-out: ID50 (the source's name)
IC50 values by entry
observable: IC50 (µg/mL)

> print(dat)
                         smilesentry  endpointunit  number
 1      C[Se]c1c(SCC#CCO)cnc2ccccc12         µg/mL     3.5
 2   C#CC[Se]c1c(SCC#CCO)cnc2ccccc12         µg/mL     3.8
 3     OCC#CCSc1cnc2ccccc2c1SCC#CCBr         µg/mL    36.2
 4     C#CCSc1cnc2ccccc2c1[Se]CC#CCO         µg/mL     3.3
 5   OCC#CCSc1cnc2ccccc2c1[Se]CC#CCO         µg/mL    26.6
 6           CSc1cnc2ccccc2c1SCC#CCO         µg/mL    34.9
 7         CSc1c(SCC#CCO)cnc2ccccc12         µg/mL    69.3
 8    C#CCSc1cnc2ccccc2c1[Se]CC#CCBr         µg/mL     2.2
 9           OCC#CCSc1cnc2ccccc2c1Cl         µg/mL     6.2
10        C#CCSc1cnc2ccccc2c1SCC#CCO         µg/mL    42.6
11  OCC#CCSc1cnc2ccccc2c1[Se]CC#CCBr         µg/mL     2.8
